Parameter 'readout' = Ki; parameter 'system' = Glutathione-disulfide reductase (Escherichia coli O157:H7, UniProt A0A0H3JIZ9).
Sequence (A0A0H3JIZ9 whole entry): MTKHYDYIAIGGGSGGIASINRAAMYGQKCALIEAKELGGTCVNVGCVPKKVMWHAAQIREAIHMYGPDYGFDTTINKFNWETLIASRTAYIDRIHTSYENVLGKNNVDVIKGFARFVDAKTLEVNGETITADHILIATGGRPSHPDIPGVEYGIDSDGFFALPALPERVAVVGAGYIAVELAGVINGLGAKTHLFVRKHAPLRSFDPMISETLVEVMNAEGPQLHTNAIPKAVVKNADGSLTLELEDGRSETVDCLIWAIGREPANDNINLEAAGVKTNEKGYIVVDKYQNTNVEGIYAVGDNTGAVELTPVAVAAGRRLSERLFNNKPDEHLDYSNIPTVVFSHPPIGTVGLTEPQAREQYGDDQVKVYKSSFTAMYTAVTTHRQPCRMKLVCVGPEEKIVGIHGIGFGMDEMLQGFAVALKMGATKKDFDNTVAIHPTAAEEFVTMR

For every record below, what is its Ki?
1. CC(CCC(=O)Nc1nnc(S(N)(=O)=O)s1)C1CCC2C3CCC4CC(O)CCC4(C)C3CCC12C (configuration not stated) [Sulfonamide derivative, 1]
2. CC(CCC(=O)Nc1nnc(S(N)(=O)=O)s1)C1CCC2C3C(O)CC4CC(O)CCC4(C)C3CCC12C (configuration not stated) [Sulfonamide derivative, 2]

stdout:
1. 72.3 µM
2. 6.1 µM

----------
Parameter 'readout' = IC50; parameter 'system' = Glutathione-disulfide reductase (Escherichia coli O157:H7, UniProt A0A0H3JIZ9).
One number for each entry, in µM.

{"compound": "CC(CCC(=O)Nc1nnc(S(N)(=O)=O)s1)C1CCC2C3CCC4CC(O)CCC4(C)C3CCC12C (configuration not stated) [Sulfonamide derivative, 1]", "measurement_type": "IC50", "observed": 47.1}

Now let's try a different one.
stdin: Sample CC(CCC(=O)Nc1nnc(S(N)(=O)=O)s1)C1CCC2C3C(O)CC4CC(O)CCC4(C)C3CCC12C (configuration not stated) [Sulfonamide derivative, 2] — what was its IC50?
stdout: 4.5
